Test system: M14 melanoma
Assay protocol: NCI tumour cell line growth inhibition, 48 h
Where a SMILES comes first, the peptide text is derived from it. [ ]: non-standard residue; d: D form. The star is where a group is joined. Bn2Val = CC(C)[C@@H](C(=O)*)N(Cc1ccccc1)Cc1ccccc1; NMeV = CN[C@H](C(=O)O)C(C)C; X29 = COc1ccc(CN*)c(OC)c1; dNMeA = CN[C@H](C)C(=O)O
Measured metric: TGI

Compound | TGI
NC(Cc1c[nH]c2cc([N+](=O)[O-])ccc12)C(=O)O (stereo not given) | > 100 µM
CCCCCCCCOC(=O)c1c(C)[nH]c(/C=C2\N=C(c3ccc[nH]3)C=C2OC)c1C | 2.01 µM
COc1ccc(CNC(=O)[C@@H]2CCCN2C(=O)[C@@H](C)N(C)C(=O)[C@H](C(C)C)N(C)C(=O)[C@@H](NC(=O)[C@H](C(C)C)N(Cc2ccccc2)Cc2ccccc2)C(C)C)c(OC)c1 (Bn2Val-V[NMeV][dNMeA]P-X29) | 10.5 µM
Cn1c([C@H](C#N)C(=O)c2cc(O)ccc2[N+](=O)[O-])nc2ccccc21 | > 100 µM
NC(=O)c1cc(N(CCO)CCO)c([N+](=O)[O-])cc1[N+](=O)[O-] | > 100 µM
O=C1C(=O)N(c2ccc(Cl)cc2)C(=O)C(=O)C1c1nc2ccccc2s1 | > 100 µM
O=[N+]([O-])c1nccn1CC(O)CN1CCCCC1 (stereo not given) | > 100 µM
COc1ccc(Nc2nc3ccccc3c3occc23)cc1 | 18.9 µM
[O-][N+]1(CC[N+]2([O-])CCCCC2)CCCCC1 | > 100 µM
O=C(/C=C/c1ccc(C(F)(F)F)cc1)Nc1ccc(C=C2c3ccccc3C(=O)c3ccccc32)cc1 | 18.8 µM

The record that follows has no TGI shown yet.
Any idea what TGI was measured for O=c1[nH]c(=O)n(COCCO)c2ccsc12 ? > 100 µM

Reference for the values: PubChem BioAssay (NCI)
